# testedOn: M5 muscarinic receptor (Homo sapiens)
# Construct: host or cells: CHO (Chinese hamster ovary) cells, stably transfected
# experiment: biochemical
# Type: binding
# conditionSummary: competition with [^3H]QNB, M5
quantityKind: Ki (nM)
Write it as a number; the unit nM goes unstated.

// lookup Ki for CCCCOc1ccc(C(=O)OCC[N+]2(C)CCCCC2)cc1.[I-]
827

---

# testedOn: M1 muscarinic receptor (Homo sapiens, UniProt P11229)
# Sequence (P11229 whole entry): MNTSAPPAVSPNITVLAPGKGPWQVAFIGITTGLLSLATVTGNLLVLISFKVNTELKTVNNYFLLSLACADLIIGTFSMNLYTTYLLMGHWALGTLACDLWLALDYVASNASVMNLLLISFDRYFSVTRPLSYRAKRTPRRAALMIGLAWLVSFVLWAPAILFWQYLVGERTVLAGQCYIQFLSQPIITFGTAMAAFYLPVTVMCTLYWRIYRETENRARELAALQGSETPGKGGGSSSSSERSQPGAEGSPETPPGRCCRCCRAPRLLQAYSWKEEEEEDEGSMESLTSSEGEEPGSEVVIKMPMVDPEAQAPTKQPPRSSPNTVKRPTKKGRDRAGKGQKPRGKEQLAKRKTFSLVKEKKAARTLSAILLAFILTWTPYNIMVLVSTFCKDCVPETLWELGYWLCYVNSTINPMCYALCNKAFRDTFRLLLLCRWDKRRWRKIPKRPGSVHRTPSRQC
# experiment: biochemical
# Format: binding
# conditionSummary: competition with [^3H]QNB, M1, experiment 1; read-out: IC50—1
quantityKind: pIC50
Note on pIC50: it is the negative log10 of concentration, concentration in mol/L.

// lookup pIC50 for CCCCOc1ccc(C(=O)OCC[N+]2(C)CCCCC2)cc1.[I-]
5.06

---

# testedOn: M4 muscarinic receptor (Homo sapiens)
# Construct: host or cells: Chinese hamster ovary cells
# Sequence (P08173 1-479): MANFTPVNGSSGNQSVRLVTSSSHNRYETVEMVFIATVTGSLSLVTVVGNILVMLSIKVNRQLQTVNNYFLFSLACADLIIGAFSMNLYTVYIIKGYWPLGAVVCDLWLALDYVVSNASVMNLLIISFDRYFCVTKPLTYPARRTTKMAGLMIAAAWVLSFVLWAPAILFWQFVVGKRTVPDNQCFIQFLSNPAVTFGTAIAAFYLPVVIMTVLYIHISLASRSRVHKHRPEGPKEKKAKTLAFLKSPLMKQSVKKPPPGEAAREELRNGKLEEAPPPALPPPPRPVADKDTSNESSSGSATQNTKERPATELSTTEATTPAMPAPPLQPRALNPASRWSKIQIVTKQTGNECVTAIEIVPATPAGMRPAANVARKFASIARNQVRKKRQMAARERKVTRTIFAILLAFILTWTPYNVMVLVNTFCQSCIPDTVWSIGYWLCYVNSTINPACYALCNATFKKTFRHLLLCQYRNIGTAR
# experiment: biochemical
# Type: binding
# conditionSummary: competition with [^3H]QNB, M4, experiment 3; read-out: IC50—3
quantityKind: IC50
Answer shape: numeric part, then the unit.

// lookup IC50 for CCCCOc1ccc(C(=O)OCC[N+]2(C)CCCCC2)cc1.[I-]
28.1 µM

---

# testedOn: M5 muscarinic receptor (Homo sapiens, UniProt P08912)
# Construct: host or cells: CHO (Chinese hamster ovary) cells, stably transfected
# experiment: Competition with [3H]NMS (equilibrium binding, CHO membranes)
# conditionSummary: competition with [^3H]NMS, M5, experiment 3; read-out: IC50—3
quantityKind: IC50
Answer shape: numeric part, then the unit.

// lookup IC50 for CCCCOc1ccc(C(=O)OCC[N+]2(C)CCCCC2)cc1.[I-] [JB-D4]
13.7 µM

---

# testedOn: M1 muscarinic receptor (Homo sapiens)
# experiment: Competition with [3H]NMS (equilibrium binding, CHO membranes)
# conditionSummary: competition with [^3H]NMS, M1, experiment 3; read-out: IC50—3
quantityKind: IC50 (µM)
Write it as a number; the unit µM goes unstated.

State its IC50 on M1 muscarinic receptor (Homo sapiens): CCCCOc1ccc(C(=O)OCC[N+]2(C)CCCCC2)cc1.[I-] [JB-D4]
15.1

---

# testedOn: M4 muscarinic receptor (Homo sapiens, UniProt P08173)
# Construct: host or cells: Chinese hamster ovary cells
# experiment: Competition with [3H]NMS (equilibrium binding, CHO membranes)
# conditionSummary: read-out: KI
quantityKind: Ki
Answer shape: numeric part, then the unit.

State its Ki on M4 muscarinic receptor (Homo sapiens, UniProt P08173): CCCCOc1ccc(C(=O)OCC[N+]2(C)CCCCC2)cc1.[I-] [JB-D4]
7.54 µM

---

# testedOn: UniProt P11229
# experiment: Competition with [3H]NMS (equilibrium binding, CHO membranes)
# conditionSummary: competition with [^3H]NMS, M1, experiment 1; read-out: IC50—1
quantityKind: IC50 (µM)
Write it as a number; the unit µM goes unstated.

// lookup IC50 for CCCCOc1ccc(C(=O)OCC[N+]2(C)CCCCC2)cc1.[I-]
14.3

---

# testedOn: M5 muscarinic receptor (Homo sapiens, UniProt P08912)
# Construct: host or cells: CHO (Chinese hamster ovary) cells, stably transfected
# Sequence (P08912 1-532): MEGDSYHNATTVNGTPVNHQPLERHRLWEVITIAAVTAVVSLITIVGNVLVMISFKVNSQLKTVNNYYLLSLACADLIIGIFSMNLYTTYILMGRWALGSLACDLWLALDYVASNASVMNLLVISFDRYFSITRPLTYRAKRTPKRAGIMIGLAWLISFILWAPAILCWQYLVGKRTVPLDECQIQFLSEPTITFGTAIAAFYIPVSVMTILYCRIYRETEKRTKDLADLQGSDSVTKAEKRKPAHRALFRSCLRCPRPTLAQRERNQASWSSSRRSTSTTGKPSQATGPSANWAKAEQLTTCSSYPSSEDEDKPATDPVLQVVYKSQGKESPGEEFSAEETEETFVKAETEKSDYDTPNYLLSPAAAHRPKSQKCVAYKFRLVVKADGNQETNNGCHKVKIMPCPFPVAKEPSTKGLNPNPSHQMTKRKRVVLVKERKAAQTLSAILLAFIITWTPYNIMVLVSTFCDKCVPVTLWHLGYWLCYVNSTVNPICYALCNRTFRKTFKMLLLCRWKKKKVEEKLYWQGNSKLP
# experiment: Competition with [3H]NMS (equilibrium binding, CHO membranes)
# conditionSummary: competition with [^3H]NMS, M5, experiment 2; read-out: IC50—2
quantityKind: IC50 (µM)
Write it as a number; the unit µM goes unstated.

// lookup IC50 for CCCCOc1ccc(C(=O)OCC[N+]2(C)CCCCC2)cc1.[I-]
11.2

---

# testedOn: M3 muscarinic receptor (Homo sapiens)
# Construct: host or cells: Chinese hamster ovary cells
# experiment: biochemical
# Type: binding
# conditionSummary: competition with [^3H]QNB, M3, experiment 3; read-out: IC50—3
quantityKind: IC50

// lookup IC50 for CCCCOc1ccc(C(=O)OCC[N+]2(C)CCCCC2)cc1.[I-]
28.2 µM

---

# testedOn: M5 muscarinic receptor (Homo sapiens)
# Construct: host or cells: CHO (Chinese hamster ovary) cells, stably transfected
# experiment: biochemical
# Type: binding
# conditionSummary: competition with [^3H]QNB, M5, experiment 3; read-out: IC50—3
quantityKind: IC50 (µM)
Write it as a number; the unit µM goes unstated.

// lookup IC50 for CCCCOc1ccc(C(=O)OCC[N+]2(C)CCCCC2)cc1.[I-]
7.34

---

# testedOn: M3 muscarinic receptor (Homo sapiens, UniProt P20309)
# Construct: host or cells: Chinese hamster ovary cells
# Sequence (P20309 whole entry): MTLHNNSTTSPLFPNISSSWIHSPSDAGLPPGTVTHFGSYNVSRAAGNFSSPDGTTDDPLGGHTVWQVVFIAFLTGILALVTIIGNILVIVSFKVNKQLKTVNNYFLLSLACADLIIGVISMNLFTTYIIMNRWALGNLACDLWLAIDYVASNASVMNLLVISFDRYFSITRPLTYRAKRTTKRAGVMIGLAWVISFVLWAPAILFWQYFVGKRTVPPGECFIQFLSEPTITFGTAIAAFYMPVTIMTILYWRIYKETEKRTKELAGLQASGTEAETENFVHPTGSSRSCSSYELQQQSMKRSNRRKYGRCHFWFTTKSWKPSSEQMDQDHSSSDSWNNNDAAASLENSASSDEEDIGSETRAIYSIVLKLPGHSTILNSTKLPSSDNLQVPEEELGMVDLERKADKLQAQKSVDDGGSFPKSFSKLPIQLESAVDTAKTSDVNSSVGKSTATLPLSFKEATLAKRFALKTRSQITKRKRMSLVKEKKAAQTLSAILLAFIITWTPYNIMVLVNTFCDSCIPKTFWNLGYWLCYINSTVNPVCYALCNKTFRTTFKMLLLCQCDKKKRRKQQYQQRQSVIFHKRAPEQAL
# experiment: biochemical
# Format: binding
# conditionSummary: competition with [^3H]QNB, M3
quantityKind: pKi
Note on pKi: it is the negative log10 of concentration, concentration in mol/L.

// lookup pKi for CCCCOc1ccc(C(=O)OCC[N+]2(C)CCCCC2)cc1.[I-] [JB-D4]
5.36
